# Method: Intrinsic clearance in rat
# Type: ADME, organism-based
# Experimental Parameters: in vivo
Endpoint: CLhep predicted (mL/min/kg)

Smiles Repr: Cc1ccoc1C(=O)Nc1ccc(N2C(=O)Cc3ccccc3C2=O)c(Cl)c1
Endpoint: CLhep predicted
Endpoint Value: 54

###

# Subject Of Test: Metabotropic glutamate receptor 1 (Homo sapiens, UniProt Q13255)
# Method: Positive allosteric modulatory activity at human mGlu1 receptor expressed in wild type T-Rex293 cells assessed as increase in glutamate-induced calcium mobilization pre-incubated for 2.5 mins before glutamate stimulation for 1 min relative to glutamate alone
# Type: functional, cell-based
# Sequence (Q13255 19-1194 limits assumed): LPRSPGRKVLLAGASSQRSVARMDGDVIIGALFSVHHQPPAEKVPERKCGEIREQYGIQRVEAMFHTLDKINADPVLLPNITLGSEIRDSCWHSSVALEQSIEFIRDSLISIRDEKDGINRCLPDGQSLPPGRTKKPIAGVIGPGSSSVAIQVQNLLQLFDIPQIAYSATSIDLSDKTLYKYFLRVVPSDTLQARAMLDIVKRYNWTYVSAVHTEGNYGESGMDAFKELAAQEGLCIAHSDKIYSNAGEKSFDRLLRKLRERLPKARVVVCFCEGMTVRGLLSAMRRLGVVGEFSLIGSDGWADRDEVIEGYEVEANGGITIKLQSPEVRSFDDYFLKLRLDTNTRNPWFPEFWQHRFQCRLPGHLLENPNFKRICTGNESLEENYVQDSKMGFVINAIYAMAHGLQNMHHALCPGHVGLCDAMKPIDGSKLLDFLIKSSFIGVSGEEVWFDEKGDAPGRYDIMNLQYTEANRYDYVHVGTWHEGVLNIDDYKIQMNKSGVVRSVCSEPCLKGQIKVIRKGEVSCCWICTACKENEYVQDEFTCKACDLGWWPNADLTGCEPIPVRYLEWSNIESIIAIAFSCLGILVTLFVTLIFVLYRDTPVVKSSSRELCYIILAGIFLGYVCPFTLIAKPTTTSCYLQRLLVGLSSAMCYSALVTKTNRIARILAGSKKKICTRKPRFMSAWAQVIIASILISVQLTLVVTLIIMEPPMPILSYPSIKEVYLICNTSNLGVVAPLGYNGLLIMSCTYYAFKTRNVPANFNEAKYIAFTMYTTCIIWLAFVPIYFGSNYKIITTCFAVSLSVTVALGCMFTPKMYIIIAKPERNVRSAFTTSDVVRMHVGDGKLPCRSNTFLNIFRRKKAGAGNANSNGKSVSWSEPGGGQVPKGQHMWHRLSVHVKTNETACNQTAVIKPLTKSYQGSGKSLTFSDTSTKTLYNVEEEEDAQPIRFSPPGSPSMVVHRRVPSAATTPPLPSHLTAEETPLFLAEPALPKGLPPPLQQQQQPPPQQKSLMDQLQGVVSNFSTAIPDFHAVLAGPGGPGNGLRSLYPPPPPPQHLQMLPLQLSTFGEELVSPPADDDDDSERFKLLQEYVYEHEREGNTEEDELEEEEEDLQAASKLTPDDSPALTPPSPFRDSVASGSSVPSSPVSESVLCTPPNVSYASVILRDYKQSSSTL
Label met when %max is at or above 90%; otherwise label not met.

Smiles Repr: Cc1scnc1C(=O)Nc1ccc(N2Cc3ccccc3C2=O)c(Cl)c1
Label Value: not met
//
Smiles Repr: Cc1ccoc1C(=O)Nc1ccc(N2C(=O)CCc3ccccc32)c(Cl)c1
Label Value: met
//
Smiles Repr: Cc1cccnc1C(=O)Nc1ccc(N2Cc3cccc(Cl)c3C2=O)c(Cl)c1
Label Value: not met
//
Smiles Repr: Cc1ccoc1C(=O)Nc1ccc(N2Cc3cc(Cl)ccc3C2=O)c(Cl)c1
Label Value: not met
//
Smiles Repr: Cc1ccoc1C(=O)Nc1ccc(N2CCc3ccccc3C2=O)c(Cl)c1
Label Value: met
//
Smiles Repr: Cc1ccoc1C(=O)Nc1ccc(N2Cc3c(C#N)cccc3C2=O)c(Cl)c1
Label Value: met
//
Smiles Repr: Cc1ccoc1C(=O)Nc1ccc(N2CCc3ccccc32)c(Cl)c1
Label Value: not met
//
Smiles Repr: O=C(Nc1ccc(N2Cc3c(Cl)cccc3C2=O)c(Cl)c1)c1ncccc1Cl
Label Value: met
//
Smiles Repr: Cc1ccoc1C(=O)Nc1ccc(N2Cc3cccc(Cl)c3C2=O)cc1
Label Value: met

###

# Subject Of Test: Metabotropic glutamate receptor 4 (Homo sapiens)
# Sequence (Q14833 whole entry): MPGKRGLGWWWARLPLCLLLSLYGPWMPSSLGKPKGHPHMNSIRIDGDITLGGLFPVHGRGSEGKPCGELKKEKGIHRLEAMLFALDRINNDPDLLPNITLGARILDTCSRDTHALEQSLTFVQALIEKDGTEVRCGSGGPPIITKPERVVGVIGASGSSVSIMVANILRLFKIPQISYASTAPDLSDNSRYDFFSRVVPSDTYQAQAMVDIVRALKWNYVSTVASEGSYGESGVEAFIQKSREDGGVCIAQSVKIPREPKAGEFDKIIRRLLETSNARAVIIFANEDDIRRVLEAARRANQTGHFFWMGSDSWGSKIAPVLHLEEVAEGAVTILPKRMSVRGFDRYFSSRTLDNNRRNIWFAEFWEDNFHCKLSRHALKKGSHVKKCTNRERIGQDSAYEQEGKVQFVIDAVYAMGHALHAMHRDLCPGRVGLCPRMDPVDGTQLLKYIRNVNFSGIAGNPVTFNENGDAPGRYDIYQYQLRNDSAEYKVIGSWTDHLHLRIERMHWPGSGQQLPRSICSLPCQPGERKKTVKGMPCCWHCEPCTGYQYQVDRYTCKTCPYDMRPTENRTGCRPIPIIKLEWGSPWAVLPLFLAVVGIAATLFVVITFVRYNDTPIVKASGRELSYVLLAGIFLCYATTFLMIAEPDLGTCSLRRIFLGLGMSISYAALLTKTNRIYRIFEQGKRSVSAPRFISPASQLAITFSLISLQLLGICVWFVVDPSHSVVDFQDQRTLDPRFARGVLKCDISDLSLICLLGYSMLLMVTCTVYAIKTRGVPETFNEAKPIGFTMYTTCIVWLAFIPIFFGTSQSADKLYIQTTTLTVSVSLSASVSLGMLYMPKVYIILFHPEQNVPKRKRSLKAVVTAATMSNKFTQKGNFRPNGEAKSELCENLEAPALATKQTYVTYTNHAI
# Method: Positive allosteric modulatory activity at human mGlu4 receptor expressed in wild type T-Rex293 cells assessed as increase in glutamate-induced calcium mobilization pre-incubated for 2.5 mins before glutamate stimulation for 1 min
pEC50: −log10 of the molar value.
The entries below come with measured pEC50 values attached.

Smiles Repr: O=C(Nc1ccc(N2C(=O)c3cccc(Cl)c3C2=O)c(Cl)c1)c1ncccc1Cl
pEC50: < 5.00

Smiles Repr: Cc1ccoc1C(=O)Nc1ccc(N2Cc3c(Cl)cccc3C2=O)c(Cl)c1
pEC50: < 5.00

###

# Subject Of Test: Cytochrome P450 3A4 (Homo sapiens)
# Sequence (P08684 whole entry): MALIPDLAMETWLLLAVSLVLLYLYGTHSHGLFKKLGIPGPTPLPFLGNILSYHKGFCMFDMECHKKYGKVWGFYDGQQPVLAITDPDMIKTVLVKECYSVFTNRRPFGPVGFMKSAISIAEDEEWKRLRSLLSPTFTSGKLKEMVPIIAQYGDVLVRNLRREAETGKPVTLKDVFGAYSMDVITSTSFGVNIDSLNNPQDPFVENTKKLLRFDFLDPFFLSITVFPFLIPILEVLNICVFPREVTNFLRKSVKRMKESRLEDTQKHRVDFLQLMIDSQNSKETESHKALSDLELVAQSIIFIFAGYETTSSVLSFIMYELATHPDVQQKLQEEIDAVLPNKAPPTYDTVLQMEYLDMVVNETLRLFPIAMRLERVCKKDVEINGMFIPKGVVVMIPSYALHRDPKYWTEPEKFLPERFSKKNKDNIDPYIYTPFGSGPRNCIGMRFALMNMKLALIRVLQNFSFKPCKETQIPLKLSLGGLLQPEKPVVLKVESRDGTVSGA
Endpoint: IC50

Smiles Repr: Cc1ccoc1C(=O)Nc1ccc(N2Cc3c(Cl)cccc3C2=O)c(Cl)c1
Subject Of Test: Cytochrome P450 3A4 (Homo sapiens)
Endpoint Value: > 30 µM

###

# Subject Of Test: UniProt Q13255
# Method: Positive allosteric modulatory activity at human mGlu1 receptor expressed in wild type T-Rex293 cells assessed as increase in glutamate-induced calcium mobilization pre-incubated for 2.5 mins before glutamate stimulation for 1 min
# Type: functional, cell-based
# Experimental Parameters: read-out: EC50
# Sequence (Q13255 whole entry): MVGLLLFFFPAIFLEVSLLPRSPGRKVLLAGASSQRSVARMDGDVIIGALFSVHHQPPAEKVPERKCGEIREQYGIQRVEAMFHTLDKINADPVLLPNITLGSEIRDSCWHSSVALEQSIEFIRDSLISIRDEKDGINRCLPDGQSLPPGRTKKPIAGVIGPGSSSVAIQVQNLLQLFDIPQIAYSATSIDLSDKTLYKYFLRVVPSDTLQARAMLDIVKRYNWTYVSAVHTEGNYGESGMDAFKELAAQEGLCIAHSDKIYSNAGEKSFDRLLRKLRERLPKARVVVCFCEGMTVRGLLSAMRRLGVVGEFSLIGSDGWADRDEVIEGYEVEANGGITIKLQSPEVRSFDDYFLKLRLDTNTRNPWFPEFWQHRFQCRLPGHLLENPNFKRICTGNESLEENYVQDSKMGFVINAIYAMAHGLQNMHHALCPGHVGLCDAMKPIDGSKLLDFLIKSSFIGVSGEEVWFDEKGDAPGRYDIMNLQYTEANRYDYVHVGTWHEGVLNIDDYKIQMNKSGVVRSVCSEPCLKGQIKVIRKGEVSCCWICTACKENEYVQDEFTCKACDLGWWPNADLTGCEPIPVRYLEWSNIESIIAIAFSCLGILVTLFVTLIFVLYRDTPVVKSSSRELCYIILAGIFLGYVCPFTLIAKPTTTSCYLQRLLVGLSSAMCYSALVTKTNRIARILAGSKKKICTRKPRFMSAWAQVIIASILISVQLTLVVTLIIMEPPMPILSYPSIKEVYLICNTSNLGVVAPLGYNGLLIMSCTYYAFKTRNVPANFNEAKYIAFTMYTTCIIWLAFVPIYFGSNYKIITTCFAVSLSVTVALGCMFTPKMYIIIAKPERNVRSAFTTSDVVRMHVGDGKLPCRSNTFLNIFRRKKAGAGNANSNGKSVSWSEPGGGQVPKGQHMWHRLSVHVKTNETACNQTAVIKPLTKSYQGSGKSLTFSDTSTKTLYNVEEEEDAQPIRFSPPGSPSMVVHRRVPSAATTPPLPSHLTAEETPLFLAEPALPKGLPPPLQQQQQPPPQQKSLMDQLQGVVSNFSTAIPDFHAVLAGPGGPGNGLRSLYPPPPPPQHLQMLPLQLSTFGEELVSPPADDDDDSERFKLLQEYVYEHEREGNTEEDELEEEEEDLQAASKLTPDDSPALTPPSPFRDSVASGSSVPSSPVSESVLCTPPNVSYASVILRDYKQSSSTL
Endpoint: EC50

Molecule: Cc1cccnc1C(=O)Nc1ccc(N2Cc3cccc(Cl)c3C2=O)c(Cl)c1
Endpoint: EC50
Endpoint Value: > 10 µM
//
Molecule: O=C(Nc1ccc(N2Cc3cccc(Cl)c3C2=O)c(Cl)c1)c1ncccc1Cl
Endpoint: EC50
Endpoint Value: > 10 µM
//
Molecule: Cc1ccoc1C(=O)Nc1ccc(N2C(=O)[C@H]3CCCC[C@H]3C2=O)c(Cl)c1
Endpoint: EC50
Endpoint Value: > 10 µM
//
Molecule: COc1cccc2c1CN(c1ccc(NC(=O)c3occc3C)cc1Cl)C2=O
Endpoint: EC50
Endpoint Value: > 10 µM
//
Molecule: Cc1ccoc1C(=O)Nc1ccc(N2Cc3ccccc3C2=O)c(Cl)c1Cl
Endpoint: EC50
Endpoint Value: > 10 µM
//
Molecule: Cc1scnc1C(=O)Nc1ccc(N2Cc3ccccc3C2=O)c(Cl)c1
Endpoint: EC50
Endpoint Value: > 10 µM
//
Molecule: Cc1ccoc1C(=O)Nc1ccc(N2Cc3c(Cl)cccc3C2=O)c(Cl)c1Cl
Endpoint: EC50
Endpoint Value: > 10 µM
//
Molecule: Cc1ccoc1C(=O)Nc1ccc(N2Cc3ccccc3C2=O)cc1F
Endpoint: EC50
Endpoint Value: > 10 µM
//
Molecule: Cc1ccoc1C(=O)Nc1ccc(N2C(=O)[C@@H]3CCCC[C@H]3C2=O)c(Cl)c1 (relative stereo)
Endpoint: EC50
Endpoint Value: > 10 µM
